Listed here are molecules together with their documented inhibition.
# TARGET OR SYSTEM: Nuclear factor NF-kappa-B complex (Homo sapiens) (UniProt Q00653+P19838+Q04206)
# Sequence (P19838 whole entry, looked up): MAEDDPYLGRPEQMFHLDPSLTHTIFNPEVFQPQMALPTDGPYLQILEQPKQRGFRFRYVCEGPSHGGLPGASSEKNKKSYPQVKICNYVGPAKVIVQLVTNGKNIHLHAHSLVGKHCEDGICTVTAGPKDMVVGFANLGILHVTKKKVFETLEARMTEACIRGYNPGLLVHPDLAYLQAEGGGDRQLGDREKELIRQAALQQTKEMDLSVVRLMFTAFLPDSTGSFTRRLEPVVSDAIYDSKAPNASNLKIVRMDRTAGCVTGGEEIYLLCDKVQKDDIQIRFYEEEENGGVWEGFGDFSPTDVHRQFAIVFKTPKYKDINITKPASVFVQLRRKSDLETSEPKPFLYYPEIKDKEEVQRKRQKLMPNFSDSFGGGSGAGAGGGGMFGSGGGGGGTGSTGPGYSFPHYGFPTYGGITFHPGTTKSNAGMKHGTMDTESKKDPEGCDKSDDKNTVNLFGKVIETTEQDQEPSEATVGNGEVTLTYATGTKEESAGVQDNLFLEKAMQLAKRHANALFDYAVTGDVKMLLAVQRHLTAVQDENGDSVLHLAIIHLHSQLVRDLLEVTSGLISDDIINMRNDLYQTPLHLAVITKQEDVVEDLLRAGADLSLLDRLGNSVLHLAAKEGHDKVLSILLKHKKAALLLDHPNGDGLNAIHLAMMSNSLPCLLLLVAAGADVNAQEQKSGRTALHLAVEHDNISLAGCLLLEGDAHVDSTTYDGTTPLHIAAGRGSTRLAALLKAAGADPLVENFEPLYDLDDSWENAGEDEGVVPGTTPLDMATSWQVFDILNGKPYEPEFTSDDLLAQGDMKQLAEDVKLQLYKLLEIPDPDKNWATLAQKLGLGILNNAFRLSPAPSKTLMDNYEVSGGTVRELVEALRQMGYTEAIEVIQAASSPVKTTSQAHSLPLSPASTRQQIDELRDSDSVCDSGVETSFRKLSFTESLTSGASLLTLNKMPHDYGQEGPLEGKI
# Sequence (Q00653 whole entry, looked up): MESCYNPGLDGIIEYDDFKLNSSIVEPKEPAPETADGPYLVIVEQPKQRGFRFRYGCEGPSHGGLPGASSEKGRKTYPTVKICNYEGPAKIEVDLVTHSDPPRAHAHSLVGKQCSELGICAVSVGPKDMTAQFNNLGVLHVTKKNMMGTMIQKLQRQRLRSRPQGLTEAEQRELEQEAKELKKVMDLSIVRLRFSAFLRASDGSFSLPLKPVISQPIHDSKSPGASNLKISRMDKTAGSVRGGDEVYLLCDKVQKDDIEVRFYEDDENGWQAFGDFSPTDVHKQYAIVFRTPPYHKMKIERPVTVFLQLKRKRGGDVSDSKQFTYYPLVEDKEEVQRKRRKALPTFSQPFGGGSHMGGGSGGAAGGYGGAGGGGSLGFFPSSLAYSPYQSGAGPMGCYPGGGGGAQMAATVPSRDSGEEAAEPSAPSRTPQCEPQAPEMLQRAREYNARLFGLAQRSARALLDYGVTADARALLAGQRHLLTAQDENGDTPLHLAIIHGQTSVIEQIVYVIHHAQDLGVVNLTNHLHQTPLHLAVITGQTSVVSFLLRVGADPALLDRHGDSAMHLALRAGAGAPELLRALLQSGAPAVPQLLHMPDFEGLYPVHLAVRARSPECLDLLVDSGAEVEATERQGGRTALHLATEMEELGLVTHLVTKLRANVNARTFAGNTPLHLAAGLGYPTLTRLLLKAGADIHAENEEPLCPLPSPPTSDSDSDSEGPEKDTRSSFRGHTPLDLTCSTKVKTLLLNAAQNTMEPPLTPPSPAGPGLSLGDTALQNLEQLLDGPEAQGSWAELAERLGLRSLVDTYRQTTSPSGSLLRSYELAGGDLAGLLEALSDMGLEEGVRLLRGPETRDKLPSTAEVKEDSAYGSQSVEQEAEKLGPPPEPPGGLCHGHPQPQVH
# Sequence (Q04206 whole entry, looked up): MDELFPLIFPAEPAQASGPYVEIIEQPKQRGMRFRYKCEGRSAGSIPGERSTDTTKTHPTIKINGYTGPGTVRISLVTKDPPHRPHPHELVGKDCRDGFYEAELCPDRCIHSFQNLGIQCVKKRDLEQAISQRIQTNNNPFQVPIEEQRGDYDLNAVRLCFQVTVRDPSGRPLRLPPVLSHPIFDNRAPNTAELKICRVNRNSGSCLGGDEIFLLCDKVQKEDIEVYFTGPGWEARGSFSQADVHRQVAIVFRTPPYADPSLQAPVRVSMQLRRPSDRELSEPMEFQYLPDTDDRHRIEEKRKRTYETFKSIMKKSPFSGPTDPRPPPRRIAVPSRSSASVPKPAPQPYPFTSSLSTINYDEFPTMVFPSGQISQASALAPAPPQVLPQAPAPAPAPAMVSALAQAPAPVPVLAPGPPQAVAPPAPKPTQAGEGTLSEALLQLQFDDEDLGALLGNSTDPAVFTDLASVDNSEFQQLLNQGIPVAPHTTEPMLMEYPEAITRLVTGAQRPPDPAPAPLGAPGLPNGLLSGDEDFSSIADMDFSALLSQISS
# EXPERIMENT SUMMARY: Inhibition of NFkappaB in human FRT-Jurkat cells expressing GFP assessed as reduction of TNF expression at 100 uM after 24 hrs by flow cytometry relative to control
# Type: cell-based
MEASURED PARAMETER: inhibition

[[record]]
molecule = "O=C1CCC(N2C(=O)c3ccc(Nc4ccccc4)cc3C2=O)C(=O)N1 (centres undefined)"
assay_result = "17%"

[[record]]
molecule = "O=C1CCC(N2C(=O)c3cccc(Nc4ccccc4)c3C2=O)C(=O)N1 (centres undefined)"
assay_result = "16%"

[[record]]
molecule = "Nc1cccc2c1CN(C1CCC(=O)NC1=O)C2=O (centres undefined)"
assay_result = "6%"

[[record]]
molecule = "O=C1CCC(N2C(=O)c3ccccc3C2=O)C(=O)N1 (racemic)"
assay_result = "4%"

